- Test system: K-562 leukemia
- experimental-protocol: NCI-60 one-dose screen, 48 h
- measurement-conditions: 10 µM
About 83,000 compounds went through this panel and 20% of them were active in at least one assay; those are over-represented in the sample as a whole. Activity calls are given as the source filed them. How the source made its calls: active means growth percent below 10; inactive means the rest.
Entry note: the call must match one of active, inactive

// param item: CCOC(=O)c1c(C(F)(F)F)n([O-])c2ccc(OC)cc2[n+]1=O ; yields the recorded call active

What was the test verdict on Cc1cccc2c1O/C(=C\c1ncc([N+](=O)[O-])n1C)C2=O ? active

Field: outcome | Entry: CC(C)(C)CC(C)(C)c1ccc(O)c(Cc2ccc(Cl)cc2Cl)c1 active

// param item: O=C/C=C/c1ccc([N+](=O)[O-])cc1Cl ; yields the recorded call inactive
